Cited source: patent US20260232828A1

# target_desc: T1, BSA (UniProt P02769 25-607)
# T1 construct: Control coating protein of the ELISA
# assay_procedure: ELISA, plate coated with BSA, hybridoma supernatant
Quick reference: OD450 of the listed items.
# number only, unit OD450 dropped from output

Use these answered entries as a reference point.
binder	units_symbol	OD450
10E11 (hybridoma clone supernatant) (antibody, V domains shown, Hybridoma supernatant) VH: EVQLVQSGTEVKKPGESLKISCKDSGYRFSSYWIGWVRQMPGKGLEWMGIIYPGDSDTRYSPSFQGQVTISADKSISTAYLQWRSLKASDTAMYYCARRGWVNYFDYWGQGTLVTVSS VL: DIQMTQSPSSVSASVGDRVTITCRASQGISNWLGWYQQKPGKAPKLLIYAASSLQSGVPSRFSGSGSGTDFTLTISSLQPEDFATYYCQQANSFPLTFGGGTKVEIK	OD450	0.0475
4F9 (hybridoma clone supernatant) (antibody, V domains shown, Hybridoma supernatant) VH: QVQLQESGPGLVKPSGTLSLTCAVSGGSISSSNWWSWVRQPPGKGLEWIGEIYHSGSTSYNPSLKSRVTISVDKSKNQFSLKLSSVTAADTAVYYCARNDWGFPLDCWGQGTLVTVSS VL: DIQMTQSPSSLSASVGDRVTITCRASQSISSYLNWYQQKPGKAPKLLIYAASSLQSGVPSRFSGSGSGTHFTLTISSLQPEDFATYYCQQSHNIPITFGQGTRLEIK	OD450	0.051
14B12 (hybridoma clone supernatant) (antibody, V domains shown, Hybridoma supernatant) VH: QVQLQESGPGLVKPSETLSLTCTVSGGSINTYYRSWIRQPPGKGLEWIGYIYYSGNTNYNPSLKSRVTISADTSKNQFSLNLISVTAADTAMYYCARAQYGEEAFDIWGQGTLVTVSS VL: DIQMTQSPSSLSASVGDRVTITCRASQSITTYLNWYQQKPGKAPQLLIFAASRLQTGVPSRFSGSGSGTDFTLTISSLLPGDFATYYCQQSYNTPPTFGGGTKVEIK	OD450	0.041
2F9 (hybridoma clone supernatant) (antibody, V domains shown, Hybridoma supernatant) VH: EVQLVESGGGVVRPGGSLRLSCAASGFTFDDYGMSWVRQAPGKGLEWVSGLSWNGGNTYYADSVKGRFTISRDNAKNSLYLQMNSLRAEDTALYYCARGSRYNWNYDAFDIWGQGTLVTVSS VL: DIQMTQSPSSLSASIGDRVTITCRASQGIRNALGWYQQKPGKAPKRLIYAASNLQSGVPSRFSGSGSGTEFTLTISSLQPEDFATYYCLQHNSYPFTFGPGTKVEIK	OD450	0.0718

Using the record for 17F3 (hybridoma clone supernatant) (antibody, V domains shown, Hybridoma supernatant) VH: EVQLVESGGGLVKSGGSLRLSCAASGFTFSSYSLKWVRQAPGKGLEWVSSISSSSGYIYYADSVKGRFTISRDNAKNSLYLQMNSLRAEDTAMYYCARAVSTIAARPGYYYYYMDVWGKGTLVTVSS VL: DIQMTQSPSSVSASIGDRVTITCRASQDISTWFAWYQQKPGKAPKLLIYAASTLRSGVPSRFSGSGSGTDFTLTINSLQPEDFATYYCQQANSFPLTFGGGTKVEIK , state its measured OD450.
0.0425
